# Target or system: Human B0AT1 (Homo sapiens (Human), UniProt Q695T7)
# Sequence (Q695T7 whole entry): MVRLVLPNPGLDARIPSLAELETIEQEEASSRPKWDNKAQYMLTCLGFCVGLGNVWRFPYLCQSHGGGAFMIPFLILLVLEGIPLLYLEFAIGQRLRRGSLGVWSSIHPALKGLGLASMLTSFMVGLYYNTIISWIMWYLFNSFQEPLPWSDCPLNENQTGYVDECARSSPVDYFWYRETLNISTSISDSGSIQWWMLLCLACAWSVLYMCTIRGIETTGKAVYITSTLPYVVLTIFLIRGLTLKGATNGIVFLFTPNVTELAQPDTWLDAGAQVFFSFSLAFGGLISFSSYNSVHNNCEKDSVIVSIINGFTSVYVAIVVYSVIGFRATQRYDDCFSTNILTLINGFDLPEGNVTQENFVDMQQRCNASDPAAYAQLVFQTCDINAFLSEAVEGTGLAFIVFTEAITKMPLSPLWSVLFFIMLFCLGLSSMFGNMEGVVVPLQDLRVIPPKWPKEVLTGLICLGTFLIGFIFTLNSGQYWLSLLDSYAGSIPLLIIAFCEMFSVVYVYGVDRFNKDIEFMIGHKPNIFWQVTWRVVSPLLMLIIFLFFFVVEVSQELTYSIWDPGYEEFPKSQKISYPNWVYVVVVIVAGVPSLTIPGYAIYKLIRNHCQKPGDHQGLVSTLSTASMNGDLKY
# Method notes: hB0AT1 inhibitory test (phenylalanine uptake)
# Type: cell-based
# Assay setup: Human B0AT1 stable expression CHO cells; [3H]-L-phenylalanine uptake, phenylalanine 0.25 mM
A collection of compounds and their measured IC50
Write down the value, and be sure its unit follows.

These solved cases illustrate the format of a correct answer.
- Smiles notation: "Cc1noc([C@@H]2CCN(C(=O)CNC(=O)/C=C/c3ccc(C(F)(F)F)cc3)C2)n1"
  IC50: "1470 nM"
- Smiles notation: "O=C(/C=C/c1ccc(C(F)(F)F)cc1)NCC(=O)N1CCc2cc(C(=O)O)c(F)cc2C1"
  IC50: "435 nM"

stdin: I am curious: what IC50 value has been reported for "O=C(/C=C/c1ccc(C(F)(F)F)cc1)NCC(=O)N1CCn2ncnc2C12CC2" ?
stdout: 324 nM

stdin: For the compound "O=C(/C=C/c1ccc(C(F)(F)F)cc1)NCC(=O)N1CCn2cc(C(F)(F)F)nc2C1" , what IC50 is on record?
stdout: 91 nM

stdin: Look at this compound and give its reported IC50. "O=C(/C=C/c1ccc(C(F)(F)F)cc1)NCC(=O)N1CC[C@@H](n2cccn2)C1"
stdout: 87 nM

Just for reference, patent US20250170126A1 is where these values come from.
